- Test system: S. aureus (ATCC 25923)
- assayText: Anti-microbial assay (CFU survival, EC50) against S. aureus
- Type: cell-based, Staphylococcus aureus
- protocolConditions: converted from μg/ml with molecular weight of TFA salt
Ends that are not written are not given here.
resultType: EC50

q: Specify measured EC50 for KRAKKFFKKLK-NH2 [ATRA-1A] .
a: 0.62 µM
